- tgt: α2C-adrenoceptor (α2C-AR) (Homo sapiens, UniProt P18825)
- Sequence (P18825 whole entry): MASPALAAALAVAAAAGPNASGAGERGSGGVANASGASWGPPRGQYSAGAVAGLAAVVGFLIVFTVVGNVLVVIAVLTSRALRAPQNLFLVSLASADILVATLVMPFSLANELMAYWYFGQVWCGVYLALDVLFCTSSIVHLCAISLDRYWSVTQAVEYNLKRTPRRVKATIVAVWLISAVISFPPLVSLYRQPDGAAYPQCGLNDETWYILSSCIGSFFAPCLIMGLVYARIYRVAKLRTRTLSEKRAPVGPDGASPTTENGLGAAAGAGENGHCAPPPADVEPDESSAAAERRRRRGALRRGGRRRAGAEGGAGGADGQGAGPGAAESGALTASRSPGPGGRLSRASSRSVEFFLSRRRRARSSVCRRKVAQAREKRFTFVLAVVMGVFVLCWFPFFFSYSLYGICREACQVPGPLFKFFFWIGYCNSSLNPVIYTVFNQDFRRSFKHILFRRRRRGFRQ
- assay-notes: Radioligand displacement, α2C
- condition-context: Ki, binding curve File S1; Alpha2C Receptor; [125I]Clonidine (0.12 nM); Alpha2 Binding Buffer
recorded-metric: pKi
Please express pKi as -log10 of the molar concentration.

Entry N=C(N)Nc1ccc2[nH]c3c(c2c1)C[C@@]1(O)[C@H]2Cc4ccc(O)c5c4[C@@]1(CCN2CC1CC1)[C@H]3O5 [GNTI, 5′-guanidinonaltrindole] ; pKi = 5.65

---

- tgt: UniProt:P08172
- Sequence (P08172 whole entry): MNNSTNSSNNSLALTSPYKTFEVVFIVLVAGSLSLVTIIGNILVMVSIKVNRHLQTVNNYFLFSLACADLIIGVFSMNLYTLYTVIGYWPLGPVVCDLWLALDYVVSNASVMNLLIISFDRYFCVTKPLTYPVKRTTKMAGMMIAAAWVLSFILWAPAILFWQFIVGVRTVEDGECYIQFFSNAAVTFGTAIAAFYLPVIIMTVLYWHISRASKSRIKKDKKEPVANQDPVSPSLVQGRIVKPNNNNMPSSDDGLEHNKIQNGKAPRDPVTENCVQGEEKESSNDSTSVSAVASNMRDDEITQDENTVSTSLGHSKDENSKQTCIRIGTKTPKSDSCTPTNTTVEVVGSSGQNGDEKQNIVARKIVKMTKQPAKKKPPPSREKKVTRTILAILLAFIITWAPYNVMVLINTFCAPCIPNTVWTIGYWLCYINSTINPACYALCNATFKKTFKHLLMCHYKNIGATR
- assay-notes: biochemical
- Format: binding
- condition-context: binding curve File S1; M2 Receptor; [3H]QNB (0.1 nM); Muscarinic Binding Buffer; read-out: Ki
recorded-metric: Ki

Entry CC(C)[C@@H](CN1CC[C@@](C)(c2cccc(O)c2)[C@@H](C)C1)NC(=O)[C@H]1Cc2ccc(O)cc2CN1 ; Ki = > 10 µM

Measured values drawn from paper PMC3747596 for this set.
